tested on: Jun bZIP K273A;Fos bZIP R155A (human;human, UniProt P05412;P01100 252-315;137-200, K273A|R155A)
Sequence (P05412 252-315 K273A, chain 1 of 2): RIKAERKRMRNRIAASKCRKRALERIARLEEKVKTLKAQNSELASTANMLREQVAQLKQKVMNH
Sequence (P01100 137-200 R155A, chain 2 of 2): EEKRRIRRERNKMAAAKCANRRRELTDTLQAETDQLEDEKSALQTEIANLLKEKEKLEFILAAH
experiment summary: ITC
observable: pKd
As a rule, pKd stands for the negative log10 of the concentration, concentration in M.

Lab note: TRE duplex 15-mer (dsDNA) DNA 1: CGCGTGACTCACCCC DNA 2: GGGGTGAGTCACGCG gave pKd of 5.17
